Values from the RNAGym collection of RNA variant scans (doi:10.1073/pnas.2313332121)

B1: TPR 5TU (parent)
chain: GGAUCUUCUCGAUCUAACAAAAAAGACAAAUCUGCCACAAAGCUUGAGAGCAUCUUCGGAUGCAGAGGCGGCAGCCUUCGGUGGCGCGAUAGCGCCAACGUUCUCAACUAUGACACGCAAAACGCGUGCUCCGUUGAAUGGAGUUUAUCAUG

# Variants of: B1
# assay remarks: polymerase ribozyme fitness, log enrichment relative to wild type (log ratio); higher = more active; in vitro selection for triplet polymerase activity
This sample holds only a part of the variants without activity.
parameter measured: polymerase ribozyme fitness (log ratio)

mutant designation: U45C A49C G70C G83C A137C U144C
test value: ≤ -4.2
--
mutant designation: A20G G83A G88C C93G G100A C149U
test value: ≤ -4.2
--
mutant designation: A12C A39U G59A A91U C93U A150C
test value: ≤ -4.2
--
mutant designation: U6G C85A
test value: -1.09
--
mutant designation: C54G G94U C123U G133C
test value: -2.38
--
mutant designation: U13G G83C C99G C118G C123U A137G
test value: ≤ -4.2
--
mutant designation: U4A A23U C35U G46A G84U C103U U139A
test value: ≤ -4.2
--
mutant designation: C27A
test value: -2.95
--
mutant designation: A16U A60C U61A A66C
test value: ≤ -4.2
--
mutant designation: A39C G141U
test value: -2.91
--
mutant designation: G59U A89U C95G
test value: -2.27
--
mutant designation: A22C G50A U55G U77C G94A
test value: -4.04
--
mutant designation: C14A A39U A73G C95G
test value: ≤ -4.2
--
mutant designation: A47G G50U G94U G141C
test value: -2.22
--
mutant designation: C27U A37C G59U U61A C63U A64C G92U
test value: ≤ -4.2
--
mutant designation: G11A A40G A49C U61A G81A C125A
test value: ≤ -4.2
--
mutant designation: A60G G68U G80C U139A
test value: ≤ -4.2
--
mutant designation: C10A C54A
test value: ≤ -4.2
--
mutant designation: C51U U78G C96U
test value: ≤ -4.2
--
mutant designation: A16G A28G G59A G80A G83C C87U
test value: ≤ -4.2
--
mutant designation: C8A C27U U56C U111C A138G
test value: ≤ -4.2
--
mutant designation: C76A C131G
test value: -3.98
